System: MS2 coat protein
ASSAY_SUMMARY: apparent KD of MS2 coat protein; designed switch direction (-1 OFF switch, 1 ON switch): -1; higher = weaker reporter binding
CONDITION: input ligand: microRNA oligo, concentration not stated
Please provide measured apparent KD of MS2 coat protein for the entries that follow.
// return the numeric value with its unit appended

# input sequence: UAGAUGGGAGGAUAUACAUAGAUACAGAUUCAUGUAGUGCUACAUGAGGAUCACCCAUGUAGAAGGCCCGUCUU [JL-ex2-2.18 Mayanne mod] (Eterna round: R96, puzzle: Exclusion 2) ; wanted: its apparent KD of MS2 coat protein
33.2 nM

Try the sequence CUGCUCCGUGUAGGAUAUGCAUGCAACCAAUAUGCAGAAGGACAUGAGGAUCACCCAUGUAUGUUAUUAUCACGUGAAGCGUCC [Design 22] (Eterna round: R96, puzzle: Exclusion NG 1)
19.5 nM

Param item: AAGAUGCGGGUAGGAUAUGGAAAUUAAUAAAGACCAGAAGGACUGGUCACACAACAUGAGGAUCACCCAUGUGUGUGUUGUGAA [AK ExNG1-6] (Eterna round: R96, puzzle: Exclusion NG 1)
9.06 nM

Entry to check: CGAUAAAAGACAGGAUAUGAGGAGAGAGAGAGAUCAGAAGGGUCACAUGAGGAUCACCCAUGUGAGUUCUCGAUAAGAAAGAGG [Prohibition 52 - Jieux - Exclusion NG 1] (Eterna round: R96, puzzle: Exclusion NG 1)
14.6 nM

ACAUGAGGAUCACCCAUGUGACCACAAUGGCUGAUGUAAAGACAGGAUAUGUGUGAAUAUCUAACACAGAAGGGUCUUGACUGG [Deportation 57 - Jieux - Exclusion NG 3] (Eterna round: R96, puzzle: Exclusion NG 3) ?
47.1 nM

Request: AAAGCGCGGUGAUAAUCUGUAACAUGAGGAUCACCCAUGUAGCAGGAUAUGGGCACAGUGGAAACUCAGAAGGGCUAUAAGCGC [Eternabot solution 21] (Eterna round: R96, puzzle: Exclusion NG 3)
369 nM

Ok, now CUGCUGGAGCUUUGCUUUGGUCGUACAUGAGGAUCACCCAUGUAGGAUAUGGUAGGCUUUGCUUGCUAGAAGGAUAGAGUGGUC [salish99_ExNG3_r04_609] (Eterna round: R96, puzzle: Exclusion NG 3)
77.5 nM

What do you get for UUUUGGCAUGUAGGAUAUGGGUCCGAUUAGGAUUUAGAAGGACAUGAGGAUCACCCAUGUGCACUUAAUUGGUCUUUUUUUUUU [EXclNG1-LROPPY16] (Eterna round: R96, puzzle: Exclusion NG 1) ?
23.5 nM

---

Could you please report measured apparent KD of MS2 coat protein for the items listed next?
System: MS2 coat protein
ASSAY_SUMMARY: apparent KD of MS2 coat protein, switch OFF state (with FMN for OFF switches, without FMN for ON switches); designed switch direction (-1 OFF switch, 1 ON switch): -1; higher = weaker reporter binding
CONDITION: FMN input: 0 or 200 uM; Eterna round: R93 (includes R88 designs)
Number only, in nM; omit the unit.

What value of apparent KD of MS2 coat protein has been reported for the following sequence? CAGUACUGAGGAUAUACAUGAGGAUCACCCAUGUAUCCUAGCUAGGAAACUAGCAAAUGUAGAAGGCAGUACUG [Ex3: 818]
503

Also GAAAAUUGAGGAUAUACGAACAUGUCAAAAGACGUGAAGGGACAUGAGGAUCACCCAUGUAGAAGGCGAAAGAG [Mat - Exclusion 2 - JL mod - D92] ?
14.1

Note, next up: AGUCAUACAGGAUAUACAUGAGGAUCACCCAUGUUUAUCCUAAAAAAAUAAAAAACAUGUAGAAGGGUAUGACA [EX3 216: Super Stable 16]
13.7

Same again, this time with AACAGUACAGGAUAUACAUGAGGAUCACCCAUGUGAGAAUUAAGUGGCGAACCACAAAGUAGAAGGGUACUGGA [Mat - Exclusion 3 - JL mod - D1]
469
